protocol_conditions: 288.15 K; 101.33 kPa; Liquid
readout: mass density (kg/m3)

[
  {
    "compound": "CCCCO [butan-1-ol]",
    "mass density / kg/m3": 813.32
  },
  {
    "compound": "CCCCCCCCO [octan-1-ol]",
    "mass density / kg/m3": 828.55
  },
  {
    "compound": "CCCCCCO [hexan-1-ol]",
    "mass density / kg/m3": 822.28
  },
  {
    "compound": "CCCCCCC [heptane]",
    "mass density / kg/m3": 687.98
  }
]

* * *

protocol_conditions: 288.15 K
readout: surface tension liquid-gas (mN/m)

[
  {
    "sample_smiles": "CCCCCCO",
    "readout": "surface tension liquid-gas",
    "assay_result": 26.08
  },
  {
    "sample_smiles": "CCCCCCC",
    "readout": "surface tension liquid-gas",
    "assay_result": 20.81
  },
  {
    "sample_smiles": "CCCCO",
    "readout": "surface tension liquid-gas",
    "assay_result": 24.68
  },
  {
    "sample_smiles": "CCCCCCCCO",
    "readout": "surface tension liquid-gas",
    "assay_result": 27.41
  }
]

* * *

protocol_conditions: 303.15 K
readout: surface tension liquid-gas (mN/m)

[
  {
    "sample_smiles": "CCCCCCO",
    "surface tension liquid-gas / mN/m": 24.74
  },
  {
    "sample_smiles": "CCCCCCCCO",
    "surface tension liquid-gas / mN/m": 26.07
  },
  {
    "sample_smiles": "CCCCO",
    "surface tension liquid-gas / mN/m": 23.34
  },
  {
    "sample_smiles": "CCCCCCC",
    "surface tension liquid-gas / mN/m": 19.19
  }
]

* * *

protocol_conditions: 308.15 K
readout: surface tension liquid-gas (mN/m)

[
  {
    "sample_smiles": "CCCCCCO",
    "unit_name": "mN/m",
    "surface tension liquid-gas": 24.19
  },
  {
    "sample_smiles": "CCCCCCCCO",
    "unit_name": "mN/m",
    "surface tension liquid-gas": 25.52
  },
  {
    "sample_smiles": "CCCCO",
    "unit_name": "mN/m",
    "surface tension liquid-gas": 22.79
  },
  {
    "sample_smiles": "CCCCCCC",
    "unit_name": "mN/m",
    "surface tension liquid-gas": 18.93
  }
]

* * *

protocol_conditions: 293.15 K
readout: surface tension liquid-gas (mN/m)

[
  {
    "sample_smiles": "CCCCO",
    "surface tension liquid-gas (mN/m)": 24.21
  },
  {
    "sample_smiles": "CCCCCCO",
    "surface tension liquid-gas (mN/m)": 25.61
  },
  {
    "sample_smiles": "CCCCCCCCO",
    "surface tension liquid-gas (mN/m)": 26.94
  },
  {
    "sample_smiles": "CCCCCCC",
    "surface tension liquid-gas (mN/m)": 20.27
  }
]

* * *

protocol_conditions: 308.15 K; 101.33 kPa; Liquid
readout: mass density (kg/m3)

[
  {
    "sample_smiles": "CCCCCCC",
    "mass density [kg/m3]": 671
  },
  {
    "sample_smiles": "CCCCCCCCO",
    "mass density [kg/m3]": 814.69
  },
  {
    "sample_smiles": "CCCCCCO",
    "mass density [kg/m3]": 808
  },
  {
    "sample_smiles": "CCCCO",
    "mass density [kg/m3]": 798.07
  }
]
